readout: melting point

> print(dat)
                                   compound  endpoint.value
1   Cl.N=C(N)N/N=C/c1cccc(OCc2ccc(Cl)cc2)c1   191 to 193 °C
2  Cl.N=C(N)N/N=C/c1cccc(OCc2cc(Cl)ccc2Cl)c1Cl [Compound 51g]   242 to 244 °C
3  CC(=O)O.N=C(N)NN=Cc1cccc(OCc2cccc(Cl)c2Cl)c1 [Compound 49a]   159 to 160 °C
4  Cl.N=C(N)N/N=C/c1cccc(OCc2cccc(C(F)(F)F)c2)c1Cl   198 to 201 °C
5  Cl.N=C(N)N/N=C/c1cccc(OCc2ccc(Cl)cc2Cl)c1Cl [Compound 51f]   268 to 270 °C
6  Cl.N=C(N)N/N=C/c1cccc(OCc2ccc(C(F)(F)F)cc2)c1Cl [Compound 51k]   245 to 247 °C
7  CC(=O)O.N=C(N)NN=Cc1cccc(OCc2cccc(C(F)(F)F)c2Cl)c1 [Compound 49b]   190 to 192 °C
8  CC(=O)O.N=C(N)N/N=C/c1cccc(OCc2cccc(C(F)(F)F)c2)c1Cl [Compound 51j]   183 to 187 °C
9  Cl.N=C(N)N/N=C/c1cccc(OCc2cc(Cl)cc(Cl)c2Cl)c1Cl [Compound 51i]   273 to 276 °C
